Recorded values, source patent US20230097573A1.

Test system: T1, hFcRn with a His-tag (human, UniProt P55899 24-297; P61769 21-119)
T1 construct: It may be the same product as m1; also called huFcRn (His tagged molecule, BPS); not shown: His-tag
Experimental details: BLI (Octet); ratio of KD at pH 7.4 to KD at pH 6.0
Measured attribute: pH 7.4/pH 6.0 (KD ratio)

Query: Returns the measured pH 7.4/pH 6.0 (KD ratio) for the input binder. Input: FcRn-176 (designed binder, AFFIMER (stefin A variant)) MIPRGLSEAKPATPEIQEIVDKVKPQLEEKTNETYGKLEAVQYKTQVLAGRHHESHKSSTNYYIKVRAGDNKYMHLKVFNGPFQHKLHKHHADRVLTGYQVDKNKDDELTGFHHHHHH
Reply: 5.5

[A] FcRn-48 (designed binder, AFFIMER (stefin A variant)) MIPRGLSEAKPATPEIQEIVDKVKPQLEEKTNETYGKLEAVQYKTQVLAKPKYHHHDISTNYYIKVRAGDNKYMHLKVFNGPGHHAKPHRWADRVLTGYQVDKNKDDELTGFHHHHHH
[B] FcRn-12 (designed binder, AFFIMER (stefin A variant)) MIPRGLSEAKPATPEIQEIVDKVKPQLEEKTNETYGKLEAVQYKTQVLAKVKTHDHQRSTNYYIKVRAGDNKYMHLKVFNGPIHQHHSQDWADRVLTGYQVDKNKDDELTGFHHHHHH
Query: Hello, I am sorting some records. Could you say if A or B has the smaller pH 7.4/pH 6.0 (KD ratio) value? To answer, give the label that identifies your chosen option.
Reply: B
(B: 4.3, A: 6.8)
